Reference for the values: patent US20100168093A1

Provide the recorded inhibition at 0.1 µM for the entries that follow.
- ASSAYED TARGET: Sigma-1 receptor (Cavia porcellus)
- Construct: guinea pig brains were homogenized; from tissue; host or cells: guinea pig brain membranes
- Sequence (Q60492 whole entry): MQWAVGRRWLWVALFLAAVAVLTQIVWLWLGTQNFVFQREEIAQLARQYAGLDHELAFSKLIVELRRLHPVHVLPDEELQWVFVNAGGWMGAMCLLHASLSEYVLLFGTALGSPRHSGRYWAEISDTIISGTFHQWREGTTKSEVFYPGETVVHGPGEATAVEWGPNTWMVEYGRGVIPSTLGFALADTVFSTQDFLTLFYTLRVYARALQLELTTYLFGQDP
- PROCEDURE SUMMARY: Sigma-1 receptor binding assay, [3H](+)-pentazocine displacement in brain membranes
- MEASUREMENT CONDITIONS: 2.5 h, compound at 10^−7 M; [3H](+)-pentazocine 0.5 nM; guinea pig brain membranes; non-specific binding defined by 1 μM haloperidol; read-out: Percent Replacement Sigma-1 receptor [10^−7 M]
Record the value in %, omitting the unit from your answer.

Indicate its recorded inhibition at 0.1 µM; the molecule in question is O[C@@H]1CN(Cc2ccccc2)C[C@H]1N1CCc2cccc3c2C1CC3 (stereo partly shown)
81.1

Name the recorded inhibition at 0.1 µM of the item `O[C@@H]1CN(Cc2ccccc2)C[C@H]1Nc1ccccc1` in your answer.
39.3

Please look at this molecule and report its inhibition at 0.1 µM: CC(=O)O[C@@H]1CN(Cc2ccccc2)C[C@H]1N1CCN(S(=O)(=O)c2ccccc2-c2ccccc2)CC1 (relative stereo)
24.7

State its inhibition at 0.1 µM: `O=S(=O)(c1ccccc1)N1CCN([C@@H]2CN(Cc3ccccc3)C[C@H]2O)CC1`
84
